All values here come from patent US6645977B1.

- assay_system: nAChRs comprised of α4 and β2 subunits (labelled by 3H-cytisine) (Rattus norvegicus, UniProt P09483+P12390)
- Sequence (P09483 31-630): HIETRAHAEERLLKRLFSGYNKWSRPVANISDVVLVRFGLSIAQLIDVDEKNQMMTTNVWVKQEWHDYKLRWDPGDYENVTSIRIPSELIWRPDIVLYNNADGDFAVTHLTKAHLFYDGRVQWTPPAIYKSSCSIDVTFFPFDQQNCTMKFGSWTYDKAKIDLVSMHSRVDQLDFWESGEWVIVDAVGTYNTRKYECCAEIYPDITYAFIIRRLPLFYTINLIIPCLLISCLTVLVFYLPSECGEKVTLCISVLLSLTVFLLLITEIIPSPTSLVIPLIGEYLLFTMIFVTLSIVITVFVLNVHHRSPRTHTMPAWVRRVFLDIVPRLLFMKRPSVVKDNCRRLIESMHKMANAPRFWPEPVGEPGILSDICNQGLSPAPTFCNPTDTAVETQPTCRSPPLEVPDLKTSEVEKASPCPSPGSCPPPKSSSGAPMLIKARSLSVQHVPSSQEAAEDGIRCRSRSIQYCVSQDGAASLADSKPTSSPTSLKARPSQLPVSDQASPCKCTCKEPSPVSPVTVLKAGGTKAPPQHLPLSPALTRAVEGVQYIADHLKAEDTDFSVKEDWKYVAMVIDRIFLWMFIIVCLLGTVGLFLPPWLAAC
- Sequence (P12390 25-500): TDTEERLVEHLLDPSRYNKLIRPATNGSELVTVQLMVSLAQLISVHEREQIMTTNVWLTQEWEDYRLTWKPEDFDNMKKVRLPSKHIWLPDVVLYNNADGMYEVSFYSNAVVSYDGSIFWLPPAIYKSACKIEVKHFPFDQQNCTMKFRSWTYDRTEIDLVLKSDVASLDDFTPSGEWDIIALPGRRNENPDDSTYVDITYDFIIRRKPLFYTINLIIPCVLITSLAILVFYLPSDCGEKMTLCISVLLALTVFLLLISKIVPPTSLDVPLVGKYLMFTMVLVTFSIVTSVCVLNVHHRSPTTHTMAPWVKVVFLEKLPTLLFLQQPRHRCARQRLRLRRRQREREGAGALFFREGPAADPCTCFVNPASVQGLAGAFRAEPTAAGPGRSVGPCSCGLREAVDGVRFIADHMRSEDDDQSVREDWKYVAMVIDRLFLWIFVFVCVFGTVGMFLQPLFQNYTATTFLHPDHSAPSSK
- test_description: In vitro inhibition of 3H-cytisine binding
- run_parameters: 3H-cytisine IC50, rat cerebral cortex homogenate, 1 nM 3H-cytisine, 90 min at 2° C.
assay_readout: log10 of IC50 (log10 of the value in µM)
Short version: log10 scale, IC50, µM.

Example compounds with recorded log10 of IC50:
{"compound": "CN1C2C=C(c3cnc4ccccc4c3)CC1CC2.O=C(O)/C=C/C(=O)O (racemic)", "meas_value": 0.11}
{"compound": "C1=C(c2cccnc2)CC2CCC1N2Cc1ccccc1.O=C(O)/C=C/C(=O)O (racemic)", "meas_value": -1.64}
{"compound": "CN1C2C=C(c3cc4ccccc4o3)CC1CC2 (racemic)", "meas_value": 2.08}

The measured log10 of IC50 associated with CN1C2C=C(c3coc4ccccc34)CC1CC2.O=C(O)/C=C/C(=O)O (racemic) reads 0.43

// recorded log10 of IC50 for CN1C2C=C(c3cc4ccccc4s3)CC1CC2 (racemic) : 1.80

// recorded log10 of IC50 for CN1C2C=C(c3cc4ccccc4s3)CC1CC2.Cl (racemic) [Compound 2d, Hydrochloride] : 2.04

###

- assay_system: nAChR labelled by 3H-α-bungarotoxin (α7 subunits) (Rattus norvegicus, UniProt Q05941)
- Sequence (Q05941 23-502): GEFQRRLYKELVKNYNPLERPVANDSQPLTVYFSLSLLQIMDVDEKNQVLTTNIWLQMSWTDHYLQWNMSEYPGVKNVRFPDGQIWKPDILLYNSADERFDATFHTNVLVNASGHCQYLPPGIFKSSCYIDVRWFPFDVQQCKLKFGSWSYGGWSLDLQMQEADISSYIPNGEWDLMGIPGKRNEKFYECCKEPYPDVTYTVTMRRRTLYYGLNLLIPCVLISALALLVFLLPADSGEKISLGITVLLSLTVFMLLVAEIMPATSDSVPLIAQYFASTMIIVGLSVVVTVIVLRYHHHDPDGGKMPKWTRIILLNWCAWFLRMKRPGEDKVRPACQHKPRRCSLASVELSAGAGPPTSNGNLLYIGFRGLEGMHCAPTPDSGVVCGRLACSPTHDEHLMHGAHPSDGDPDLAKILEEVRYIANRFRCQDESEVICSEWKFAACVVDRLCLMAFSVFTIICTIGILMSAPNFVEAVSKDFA
- test_description: biochemical
- Type: binding
- run_parameters: read-out: 3H-α-bungarotoxin IC50
We label by threshold. Values of IC50 strictly beneath 200 nM are YES. Values of 200 nM and up are NO.

Recorded results for 3 compounds are shown here.
{"compound": "C1=C(c2cccnc2)CC2CCC1N2Cc1ccccc1.O=C(O)/C=C/C(=O)O (racemic) [Compound 1a]", "answer_label": "NO"}
{"compound": "CN1C2C=C(c3cccc(N)c3)CC1CC2.O=C(O)/C=C/C(=O)O (racemic) [Compound 4c]", "answer_label": "NO"}
{"compound": "CN1C2C=C(c3sccc3Br)CC1CC2 (racemic) [Compound 1f]", "answer_label": "YES"}

For the next question, use this compound.
Could you please tell me whether IC50 recorded for CN1C2C=C(c3cc4ccccc4s3)CC1CC2.Cl (racemic) [Compound 2d, Hydrochloride] is less than 200 nM?
YES

###

- assay_system: nAChR labelled by 3H-α-bungarotoxin (α7 subunits) (Rattus norvegicus)
- test_description: biochemical
- Format: binding
Reported pIC50 is given for each of the following molecules.
# pIC50: negative log10 of molar concentration; output just the value

Use the examples below as a reference point.
{"molecule": "CN1C2C=C(c3cccnc3)CC1CC2 (racemic) [Compound 2a]", "assay_system": "nAChR labelled by 3H-α-bungarotoxin (α7 subunits) (Rattus norvegicus)", "assay_readout": "pIC50", "meas_value": 6.26}
{"molecule": "CN1C2C=C(c3ccc(Cl)nc3)CC1CC2 (racemic) [Compound 5b]", "assay_system": "nAChR labelled by 3H-α-bungarotoxin (α7 subunits) (Rattus norvegicus)", "assay_readout": "pIC50", "meas_value": 5.72}

Looking up C1=C(c2cc3ccccc3o2)CC2CCC1N2 (racemic) [Compound 1e] , I found its pIC50 recorded as 6.10

// sample CC(=O)Nc1cccc(C2=CC3CCC(C2)N3C)c1.O=C(O)/C=C/C(=O)O (racemic) [Compound 3c] , its pIC50 was 6.19
